# System: U2OS
# ASSAY_TEXT: Multiplex assay against U2OS
# Assay type: toxicity, cell-based
# COND: human, 12 h, 10 µM, compound concentration 10 uM, replicate 2
READOUT_NAME: Population Apoptotic (%)
Supply the numeric figure in %, leaving out any unit text.

>  <COMPOUND>
Cc1cn(-c2cc(NC(=O)c3ccc4c(c3)CN(c3cncnc3)C[C@@H]4C)cc(C(F)(F)F)c2)cn1

>  <UNIT_SYMBOL>
%

>  <Population Apoptotic (%)>
66

$$$$
>  <COMPOUND>
CC(C)N1CCC(C)(C)c2cc(C#Cc3ccc(C(=O)O)cc3)ccc21

>  <UNIT_SYMBOL>
%

>  <Population Apoptotic (%)>
0

$$$$
>  <COMPOUND>
CN(C)C/C=C/C(=O)Nc1cc2c(Nc3ccc(F)c(Cl)c3)ncnc2cc1O[C@H]1CCOC1.O=C(O)/C=C\C(=O)O.O=C(O)/C=C\C(=O)O [AFATINIB DIMALEATE]

>  <UNIT_SYMBOL>
%

>  <Population Apoptotic (%)>
68

$$$$
>  <COMPOUND>
Cl.Cl.Nc1ncnc2c1c(-c1cccc(OCc3ccccc3)c1)cn2[C@H]1C[C@@H](CN2CCC2)C1

>  <UNIT_SYMBOL>
%

>  <Population Apoptotic (%)>
85

$$$$
>  <COMPOUND>
CC(C)(C)c1cnc(CSc2cnc(NC(=O)C3CCNCC3)s2)o1

>  <UNIT_SYMBOL>
%

>  <Population Apoptotic (%)>
18

$$$$

Now for the compound whose Population Apoptotic (%) we want.
Recorded result, COc1cc2c(NC3CCN(C(C)C)CC3)nc(N3CCC(F)(F)CC3)nc2cc1OCCCN1CCCC1 , Population Apoptotic (%): 66

src = ChEMBL document CHEMBL4689842
